Parameter percent of parent: see the listing below.
B1: Cas3 of E. coli K12 Type I-E CRISPR/Cas complex [E. coli K12] / Cas7 of E. coli K12 Type I-E CRISPR/Cas complex [E. coli K12] (parent complex)
chain 1: MEPFKYICHYWGKSSKSLTKGNDIHLLIYHCLDVAAVADCWWDQSVVLQNTFCRNEMLSKQRVKAWLLFFIALHDIGKFDIRFQYKSAESWLKLNPATPSLNGPSTQMCRKFNHGAAGLYWFNQDSLSEQSLGDFFSFFDAAPHPYESWFPWVEAVTGHHGFILHSQDQDKSRWEMPASLASYAAQDKQAREEWISVLEALFLTPAGLSINDIPPDCSSLLAGFCSLADWLGSWTTTNTFLFNEDAPSDINALRTYFQDRQQDASRVLELSGLVSNKRCYEGVHALLDNGYQPRQLQVLVDALPVAPGLTVIEAPTGSGKTETALAYAWKLIDQQIADSVIFALPTQATANAMLTRMEASASHLFSSPNLILAHGNSRFNHLFQSIKSRAITEQGQEEAWVQCCQWLSQSNKKVFLGQIGVCTIDQVLISVLPVKHRFIRGLGIGRSVLIVDEVHAYDTYMNGLLEAVLKAQADVGGSVILLSATLPMKQKQKLLDTYGLHTDPVENNSAYPLINWRGVNGAQRFDLLAHPEQLPPRFSIQPEPICLADMLPDLTMLERMIAAANAGAQVCLICNLVDVAQVCYQRLKELNNTQVDIDLFHARFTLNDRREKENRVISNFGKNGKRNVGRILVATQVVEQSLDVDFDWLITQHCPADLLFQRLGRLHRHHRKYRPAGFEIPVATILLPDGEGYGRHEHIYSNVRVMWRTQQHIEELNGASLFFPDAYRQWLDSIYDDAEMDEPEWVGNGMDKFESAECEKRFKARKVLQWAEEYSLQDNDETILAVTRDGEMSLPLLPYVQTSSGKQLLDGQVYEDLSHEQQYEALALNRVNVPFTWKRSFSEVVDEDGLLWLEGKQNLDGWVWQGNSIVITYTGDEGMTRVIPANPK
chain 2: MSNFINIHVLISHSPSCLNRDDMNMQKDAIFGGKRRVRISSQSLKRAMRKSGYYAQNIGESSLRTIHLAQLRDVLRQKLGERFDQKIIDKTLALLSGKSVDEAEKISADAVTPWVVGEIAWFCEQVAKAEADNLDDKKLLKVLKEDIAAIRVNLQQGVDIALSGRMATSGMMTELGKVDGAMSIAHAITTHQVDSDIDWFTAVDDLQEQGSAHLGTQEFSSGVFYRYANINLAQLQENLGGASREQALEIATHVVHMLATEVPGAKQRTYAAFNPADMVMVNFSDMPLSMANAFEKAVKAKDGFLQPSIQAFNQYWDRVANGYGLNGAAAQFSLSDVDPITAQVKQMPTLEQLKSWVRNNGEA

- Variants of: B1
- assay-remarks: SPEC system (split protease-E. coli ClpXP) in E. coli cells; parent: 100; read off a plot
quantity-kind: percent of parent

variant-key | measurement
chain 1 K78A | ~73%
chain 1 K320N | ~120%
chain 1 D452N | ~120%
chain 1 S483A, chain 1 T485A | ~25%

Reference source for all entries: paper PMC8260793
